Reported melting point values follow for various compounds
Parameter: melting point

• c1ccc(COc2ccc(C(c3ccc(OCc4ccccc4)cc3)n3cncn3)cc2)cc1 = 134 to 137 °C
• COc1ccc2c(c1)C(NC(C)C)=C(C(N)=O)S2=O (centres undefined) = 194 °C
• CCOC(=O)CN(CP(=O)(ONN1CCOCC1)ONN1CCOCC1)C(=O)C(F)(F)F = 69 to 74 °C
• CCCCCCCCCCCC(=O)OC1CC(c2ccccc2)NC(c2ccccc2)C1 (centres undefined) = 40 to 42 °C
• C[C@@H]1S[C@@H](C(=O)Nc2ccc(CN3C(=O)CNC3=O)cc2)Cc2cc3c(cc2C1=O)OCO3 = 139 to 144 °C
• CC(C)(C)OC(=O)CNC(=O)c1sc(Nc2ccccc2)c2c1CCc1cnoc1-2 = 115 to 116 °C
• Nc1ccc2ccc(-c3ccc(Cl)c(Cl)c3)nc2n1 = 210 °C
• [N-]=[N+]=C1C(=O)Oc2cc(OCc3ccccc3)ccc2C1=O = 191 °C
• CC(=O)NC1CCC2C(C1)c1c(OC(C)=O)cc(OC(C)CCCc3ccccc3)cc1N(C)C2C (centres undefined) = 120 to 122 °C
• CC(C)(F)C1COCc2nc3c(N)nc4cc(O)ccc4c3n21 (centres undefined) = 219 to 221 °C
• CCCC1=NN(c2ccc(C(N)=O)cc2)C(=O)C1=CNc1ccccc1CC = 170 °C
• FC(F)(F)c1cccc(C(NC2=NCCO2)C(F)(F)F)c1 (centres undefined) = 129 to 132 °C
• CCCc1cc2cc(O)c(Cl)c(Cl)c2s1 = 50 to 51 °C
• COc1ccc(-c2cc3ccccc3[nH]2)cc1N = 208 to 209 °C
• O=C(Nc1ccc2cc(CN3CCC(CO)CC3)cnc2c1)c1ccc(-c2ccc(F)cc2)cc1 = 191 to 195 °C
• O=C(Cc1cccs1)Nc1n[nH]c2cc(Cl)ccc12 = 210 °C
• COc1cc(N)c(Cl)cc1C(=O)NCC1CCN(CCCCCSc2ccccc2)CC1 = 143 to 144 °C
• CCCCCCCCCCOC(=O)C1CCC(=O)N1 (centres undefined) = 34 to 35 °C
• Cc1c(O)cc(O)cc1C(=O)OCc1ccc([N+](=O)[O-])cc1 = 160 to 163 °C
• CCCCOC(=O)c1ccc(F)nc1N = 132 to 134 °C
• COc1ccc(Cl)cc1C(=O)NCC1CCOc2cc(OC)c(S(N)(=O)=O)cc21 (centres undefined) = 202 °C
• CCNc1cccc2c1C(=O)c1cccc(NCC)c1C2=O = 193 to 195 °C
• O=C1CCC(N2Cc3c(OCc4cccc(Cl)c4Cl)cccc3C2=O)C(=O)N1 (centres undefined) = 272 to 274 °C
• CCOC(=O)C(=CNC(C)(C)C)C(=O)c1cc(F)c(Cl)cc1Cl = 87 °C
• Cc1cccc(-c2cn(C)cc(-c3cccc(Br)c3)c2=O)c1 = 144 to 147 °C
• CCCCCCCCCCCCCCCCCCOc1cc(O)cc(C(=O)OC)c1 = 93 to 94 °C
• Nc1nc2[nH]c(CCCCC#Cc3ccc(C(=O)N[C@@H](CCC(=O)O)C(=O)O)s3)cc2c(=O)[nH]1 = 197 to 198 °C
• CC1(C)CCC(N2c3ccccc3Oc3ccc(Cl)cc32)=N1 = 118 to 120 °C
• CCCCC(CC)C(=O)Nc1ccc(-n2nc3ccc(C(F)(F)F)cc3n2)c(O)c1 (centres undefined) = 179 to 181 °C
• C[C@H]1[C@H](N2C(=O)c3ccccc3C2=O)C(=O)N1O (relative stereo) = 94 to 96 °C
• CCCc1c(C(=O)C2CC2)c2ccc(C(N)=O)cc2n1Cc1cc2c(cc1Cl)OCO2 = 162 to 164 °C
• C[C@H]1Cn2c(=S)[nH]c3cccc(c32)CN1CC1CC1 = 197 °C
• CC1CC(NC(=O)c2ccccc2SC#N)CC(C)(C)C1 (centres undefined) = 117 °C
• O=C(O)c1ccccc1Oc1ccccc1C1CCCCC1 = 109 to 123 °C
• COCCN(CCOC)Cc1nc(-c2ncn3c2[C@@H]2CCN2C(=O)c2c(Cl)cccc2-3)no1 = 188 to 190 °C
• CCC1CCC(NC(=O)NS(=O)(=O)c2ccc(CCNC(=O)N3CCC(C)CC3=O)cc2)CC1 (centres undefined) = 178 to 180 °C
• NS(=O)(=O)c1ccc(-c2noc(-c3ncn4c(C(F)(F)F)cc(-c5ccc(C(F)(F)F)cc5)nc34)n2)s1 = 295 °C
• Cc1c(NC(=O)c2ccc(OC[C@@H]3CCCO3)cc2)ccc2cc(CN[C@H](C)C(C)(C)C)cnc12 = 140 to 141 °C
• COC(OC)C(=O)CC(C)(C)C(Cc1c(C)c(Br)cn1S(=O)(=O)c1ccc(C)cc1)[N+](=O)[O-] (centres undefined) = 114 to 115 °C
